targetOrTestSystem: CYP3A4 (Homo sapiens, UniProt P08684)
Construct: host or cells: human liver microsomes
Sequence (P08684 whole entry): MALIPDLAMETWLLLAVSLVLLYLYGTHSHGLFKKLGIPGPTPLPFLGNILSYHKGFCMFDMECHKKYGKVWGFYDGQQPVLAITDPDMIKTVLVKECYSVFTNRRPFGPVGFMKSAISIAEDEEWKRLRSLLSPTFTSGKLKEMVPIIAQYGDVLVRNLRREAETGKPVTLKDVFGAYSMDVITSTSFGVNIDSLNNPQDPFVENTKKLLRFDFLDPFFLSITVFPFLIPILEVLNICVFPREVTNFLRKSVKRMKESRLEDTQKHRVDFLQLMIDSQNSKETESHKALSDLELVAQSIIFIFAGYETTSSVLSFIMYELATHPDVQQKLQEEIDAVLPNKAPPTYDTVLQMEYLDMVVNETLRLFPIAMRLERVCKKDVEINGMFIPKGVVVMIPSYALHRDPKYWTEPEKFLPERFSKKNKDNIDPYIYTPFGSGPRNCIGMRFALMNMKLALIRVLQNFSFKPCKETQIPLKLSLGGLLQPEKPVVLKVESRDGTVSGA
assayNotes: CYP3A4 inhibition (midazolam metabolism in human liver microsomes)
Assay type: in vitro ADME
conditionContext: substrate midazolam, read-out: CYP 3A4Ki
recordedMetric: Ki

Form field Ki, entry Cc1csc(CN(C)C(=O)c2cc(C(=O)N[C@@H](Cc3ccccc3)[C@H](O)[C@H]3CCCN3)cc(-c3ncco3)c2)n1 [1-15] : 5 to 10 µM

Form field Ki, entry Cc1csc(CN(C)C(=O)c2cccc(C(=O)N[C@@H](Cc3ccccc3)[C@H](O)[C@H]3C[C@@H](OCc4ccccc4)CN3)c2)n1 [1-9] : 1 to 5 µM

Form field Ki, entry Cc1cc(C(=O)N[C@@H](Cc2ccccc2)[C@H](O)CNCc2cncc(C(C)(C)C)c2)cc(C(=O)N2CCC[C@@H]2c2nc(C)co2)c1 [2-11, reference compound] : < 1 µM

Form field Ki, entry Cc1csc([C@H]2CCCN2C(=O)c2cccc(C(=O)N[C@@H](Cc3ccccc3)[C@H](O)[C@H]3C[C@@H](OCc4ccccc4)CN3)c2)n1 [1-22] : 1 to 5 µM

Form field Ki, entry Cc1cc(C(=O)N[C@@H](Cc2ccccc2)[C@H](O)CNCc2cncc(C(C)C)c2)cc(C(=O)N2CCC[C@@H]2c2nc(C)cs2)c1 [2-8, reference compound] : < 1 µM

Form field Ki, entry COc1cc(C(=O)N[C@@H](Cc2ccccc2)[C@H](O)[C@H]2CCCN2)cc(C(=O)N2CCC[C@@H]2c2nc(C)cs2)c1 [1-34] : 5 to 10 µM

* * *

targetOrTestSystem: memapsin 2 (Cricetulus griseus)
Construct: endogenous in cells
Sequence (G3IAK4 22-501): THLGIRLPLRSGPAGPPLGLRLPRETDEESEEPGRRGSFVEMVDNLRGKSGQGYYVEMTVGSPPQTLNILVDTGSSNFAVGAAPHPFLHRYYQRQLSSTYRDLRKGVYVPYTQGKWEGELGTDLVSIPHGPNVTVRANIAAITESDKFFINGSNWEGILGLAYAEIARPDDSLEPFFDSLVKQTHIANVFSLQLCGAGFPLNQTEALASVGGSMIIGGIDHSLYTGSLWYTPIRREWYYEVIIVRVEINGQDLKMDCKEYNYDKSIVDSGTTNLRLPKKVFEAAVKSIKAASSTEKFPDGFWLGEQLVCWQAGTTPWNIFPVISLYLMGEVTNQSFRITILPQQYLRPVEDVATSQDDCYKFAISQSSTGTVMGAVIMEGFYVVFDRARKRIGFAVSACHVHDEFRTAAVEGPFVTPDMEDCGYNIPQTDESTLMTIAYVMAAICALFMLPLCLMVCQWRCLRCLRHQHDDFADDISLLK
assayNotes: Cellular Aβ IC50 determination (Aβ40 sandwich ELISA)
conditionContext: CHO cells over-expressing human APP695 with London and Swedish mutations, 24 h, read-out: M2 IC50
pIC50: −log10 of the molar value.
The compounds listed here are annotated with their pIC50.

Reading of pIC50 for Cc1csc([C@H]2CCCN2C(=O)c2cccc(C(=O)N[C@@H](Cc3ccccc3)[C@H](O)CNCc3cccc(C(C)(C)C)c3)c2)n1 [2-10, reference compound] with memapsin 2 (Cricetulus griseus): > 6.30

Reading of pIC50 for `Cc1csc([C@H]2CCCN2C(=O)c2cccc(C(=O)N[C@@H](Cc3ccccc3)[C@H](O)[C@H]3C[C@H](F)CN3)c2)n1` with memapsin 2 (Cricetulus griseus): < 6.00

Reading of pIC50 for `Cc1csc([C@H]2CCCN2C(=O)c2cc(C(=O)N[C@@H](Cc3ccccc3)[C@H](O)[C@H]3CCCN3)cc(C(F)F)c2)n1` with memapsin 2 (Cricetulus griseus): > 6.30

* * *

assayNotes: Hepatic intrinsic clearance in liver microsomes
Format: in vitro ADME
conditionContext: human, pH 7.4, human liver microsomes, in vitro clearance, read-out: HLM CL
recordedMetric: CLint scaled at 200 μM

Form field CLint scaled at 200 μM, entry Cc1csc([C@H]2CCCN2C(=O)c2cc(C(=O)N[C@@H](Cc3ccccc3)[C@H](O)[C@H]3CCCN3)cc(-n3cccc3)c2)n1 [1-16] : < 400 mL/min/kg

Form field CLint scaled at 200 μM, entry Cc1csc(CN(C)C(=O)c2cc(C(=O)N[C@@H](Cc3ccccc3)[C@H](O)[C@H]3CCCN3)cc(-n3cccc3)c2)n1 [1-13] : < 400 mL/min/kg

Form field CLint scaled at 200 μM, entry Cc1csc(CN(C)C(=O)c2cc(C(=O)N[C@@H](Cc3ccccc3)[C@H](O)[C@H]3CCCN3)cc(-c3cnco3)c2)n1 [1-12] : < 400 mL/min/kg

Form field CLint scaled at 200 μM, entry Cc1coc([C@H]2CCCN2C(=O)c2cc(CF)cc(C(=O)N[C@@H](Cc3ccccc3)[C@H](O)CNCc3cccc(C(C)(C)C)c3)c2)n1 [2-7, reference compound] : > 700 mL/min/kg

Form field CLint scaled at 200 μM, entry Cc1coc([C@H]2CCCN2C(=O)c2cccc(C(=O)N[C@@H](Cc3ccccc3)[C@H](O)CNCc3cncc(C(C)(C)C)c3)c2)n1 [2-4, reference compound] : > 700 mL/min/kg

Form field CLint scaled at 200 μM, entry Cc1coc([C@H]2CCCN2C(=O)c2cc(C(=O)N[C@@H](Cc3ccccc3)[C@H](O)[C@H]3CCCN3)cc(-c3ncco3)c2)n1 [1-17] : < 400 mL/min/kg

Form field CLint scaled at 200 μM, entry Cc1csc(CN(C)C(=O)c2cccc(C(=O)N[C@@H](Cc3ccccc3)[C@H](O)[C@H]3C[C@@H](OCc4ccccc4)CN3)c2)n1 [1-9] : < 400 mL/min/kg

* * *

The compounds listed here are annotated with their Ki.
targetOrTestSystem: CYP3A4 (Homo sapiens)
Construct: host or cells: human liver microsomes
assayNotes: CYP3A4 inhibition (midazolam metabolism in human liver microsomes)
Format: in vitro ADME
conditionContext: substrate midazolam, read-out: CYP 3A4Ki

Answered examples (5):
| compound | targetOrTestSystem | Ki |
| --- | --- | --- |
| CCn1cc(CNC[C@@H](O)[C@H](Cc2ccccc2)NC(=O)c2cc(C)cc(C(=O)N3CCC[C@@H]3c3nc(C)co3)c2)cn1 [2-5, reference compound] | CYP3A4 (Homo sapiens) | 1 to 5 µM |
| Cc1cc(C(=O)N[C@@H](Cc2ccccc2)[C@H](O)CNCc2cncc(C(C)(C)C)c2)cc(C(=O)N2CCC[C@@H]2c2nc(C)co2)c1 [2-3, reference compound] | CYP3A4 (Homo sapiens) | < 1 µM |
| Cc1csc([C@H]2CCCN2C(=O)c2cc(C(=O)N[C@@H](Cc3ccccc3)[C@H](O)[C@H]3CCCN3)cc(N3CCOCC3)c2)n1 | CYP3A4 (Homo sapiens) | 5 to 10 µM |
| Cc1csc([C@H]2CCCN2C(=O)c2cccc(C(=O)N[C@@H](Cc3ccccc3)[C@H](O)CNCc3cccc(C(C)(C)C)c3)c2)n1 [2-10, reference compound] | CYP3A4 (Homo sapiens) | < 1 µM |
| Cc1csc([C@H]2CCCN2C(=O)c2cc(C(=O)N[C@@H](Cc3ccccc3)[C@H](O)[C@H]3CCCN3)cc(-c3cnccn3)c2)n1 | CYP3A4 (Homo sapiens) | > 10 µM |

Let us move to another entry and its Ki.
Form field Ki, entry `Cc1csc(CN(C)C(=O)c2cccc(C(=O)N[C@@H](Cc3cc(F)cc(F)c3)[C@H](O)[C@H]3CCCN3)c2)n1` : > 10 µM

* * *

targetOrTestSystem: memapsin 2 (Homo sapiens)
Sequence (P56817 46-501): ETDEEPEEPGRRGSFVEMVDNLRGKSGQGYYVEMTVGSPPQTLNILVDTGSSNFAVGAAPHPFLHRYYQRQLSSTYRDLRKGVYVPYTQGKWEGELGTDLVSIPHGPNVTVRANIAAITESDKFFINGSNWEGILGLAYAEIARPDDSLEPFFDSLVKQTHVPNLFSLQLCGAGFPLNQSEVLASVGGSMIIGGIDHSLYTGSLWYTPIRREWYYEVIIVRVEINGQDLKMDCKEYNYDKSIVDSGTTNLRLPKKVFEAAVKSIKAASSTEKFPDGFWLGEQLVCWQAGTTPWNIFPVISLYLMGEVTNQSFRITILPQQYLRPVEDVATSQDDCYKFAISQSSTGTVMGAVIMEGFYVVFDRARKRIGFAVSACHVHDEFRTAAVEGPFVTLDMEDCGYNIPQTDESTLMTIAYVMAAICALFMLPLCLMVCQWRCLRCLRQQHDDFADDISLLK
assayNotes: Inhibition of memapsin 2 beta-secretase activity (fluorogenic substrate FS-2)
Format: biochemical
conditionContext: pH 4, 37° C., read-out: M2 Ki
pKi: −log10 of the molar value.
recordedMetric: pKi

| molecule | pKi |
| --- | --- |
| Cc1cc(C(=O)N[C@@H](Cc2ccccc2)[C@H](O)CNCc2cncc(C(C)(C)C)c2)cc(C(=O)N2CCC[C@@H]2c2nc(C)co2)c1 [2-3, reference compound] | > 6.60 |

Form field pKi, entry `Cc1coc([C@H]2CCCN2C(=O)c2cc(C(=O)N[C@@H](Cc3ccccc3)[C@H](O)[C@H]3CCCN3)cc(-c3ccccn3)c2)n1` : > 6.60

Form field pKi, entry `Cc1coc([C@H]2CCCN2C(=O)c2cccc(C(=O)N[C@@H](Cc3ccccc3)[C@H](O)[C@H]3CCCN3)c2)n1` : 6.12 to 6.60

Form field pKi, entry `Cc1csc([C@H]2CCCN2C(=O)c2cc(F)cc(C(=O)N[C@@H](Cc3ccccc3)[C@H](O)[C@H]3CCCN3)c2)n1` : > 6.60

Form field pKi, entry `Cc1csc([C@H]2CCCN2C(=O)c2cccc(C(=O)N[C@@H](Cc3ccccc3)[C@H](O)[C@@H]3NCCC3(F)F)c2)n1` : > 6.60

Form field pKi, entry `Cc1csc([C@H]2CCCN2C(=O)c2cccc(C(=O)N[C@@H](Cc3ccccc3)[C@H](O)[C@H]3CCCN3)c2)n1` : > 6.60

* * *

The compounds listed here are annotated with their pKi.
targetOrTestSystem: CYP3A4 (Homo sapiens)
Construct: host or cells: human liver microsomes
assayNotes: CYP3A4 inhibition (midazolam metabolism in human liver microsomes)
Type: in vitro ADME
conditionContext: substrate midazolam, read-out: CYP 3A4Ki
pKi: −log10 of the molar value.

Answered examples (5):
| smilesRepresentation | reportedResult |
| --- | --- |
| Cc1csc(CN(C)C(=O)c2cc(C(=O)N[C@@H](Cc3ccccc3)[C@H](O)[C@H]3CCCN3)cc(-n3cccc3)c2)n1 | 5.00 to 5.30 |
| Cc1cc(C(=O)N[C@@H](Cc2ccccc2)[C@H](O)[C@H]2CCCN2)cc(C(=O)N2CCC[C@@H]2c2nc(C)co2)c1 | < 5.00 |
| Cc1coc([C@H]2CCCN2C(=O)c2cc(C(=O)N[C@@H](Cc3ccccc3)[C@H](O)[C@H]3CCCN3)cc(-c3ncco3)c2)n1 | < 5.00 |
| Cc1csc([C@H]2CCCN2C(=O)c2cc(F)cc(C(=O)N[C@@H](Cc3ccccc3)[C@H](O)[C@H]3CCCN3)c2)n1 | 5.00 to 5.30 |
| Cc1coc([C@H]2CCCN2C(=O)c2cc(C(=O)N[C@@H](Cc3ccccc3)[C@H](O)[C@H]3CCCN3)cc(N(C)S(C)(=O)=O)c2)n1 | < 5.00 |

Let us move to another entry and its pKi.
Form field pKi, entry `Cc1coc([C@H]2CCCN2C(=O)c2cc(C(=O)N[C@@H](Cc3ccccc3)[C@H](O)[C@H]3CCCN3)cc(-n3cccc3)c2)n1` : 5.00 to 5.30
